Test method notes: 1 week stability of primary screen salts at 40° C./75% RH and 80° C. (open vials, XRPD)
Format: physicochemical
Property measured: Stability 40° C./75% RH (open conditions)

C=CC(=O)Nc1cccc(Nc2nc(Nc3ccc(N4CCN(C(C)=O)CC4)cc3OC)ncc2C(F)(F)F)c1.O=C(O)/C=C\C(=O)O [Maleate Form I] : No form change,
C=CC(=O)Nc1cccc(Nc2nc(Nc3ccc(N4CCN(C(C)=O)CC4)cc3OC)ncc2C(F)(F)F)c1.O=S(=O)(O)c1ccccc1.O=S(=O)(O)c1ccccc1 [Besylate (2 equiv.) Form II] : No form change,
C=CC(=O)Nc1cccc(Nc2nc(Nc3ccc(N4CCN(C(C)=O)CC4)cc3OC)ncc2C(F)(F)F)c1.O=C(O)/C=C\C(=O)O [Maleate Form II] : No form change,
